B1: Caulobacter ParB omega fusion; a variant is named by its letters at X, in order, B8GW30 (parent)
chain: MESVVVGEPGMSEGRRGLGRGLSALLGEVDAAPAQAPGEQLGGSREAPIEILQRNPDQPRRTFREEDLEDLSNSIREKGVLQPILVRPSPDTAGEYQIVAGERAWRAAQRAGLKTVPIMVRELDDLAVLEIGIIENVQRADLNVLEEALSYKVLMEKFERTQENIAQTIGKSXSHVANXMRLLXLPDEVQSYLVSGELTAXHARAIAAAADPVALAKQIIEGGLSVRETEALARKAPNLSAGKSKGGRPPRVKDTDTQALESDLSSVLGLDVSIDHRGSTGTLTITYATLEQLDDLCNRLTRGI

variants of: B1; test: one-hybrid fitness for binding NBS DNA (the Noc-binding site; scaled: cognate 1, non-cognate 0); higher = stronger binding; details: with NBS DNA site
In all, about 81,000 sequences were measured (“one-hybrid fitness for binding NBS DNA”: median about -0.1, highest 2% from about 0.36 on). This is one part of a sample in which the highest values are shown more often than they occur.
measure: one-hybrid fitness for binding NBS DNA

mutation_code=DRTT measure="one-hybrid fitness for binding NBS DNA" qualifier_operator=≤ value_measured=0.2
mutation_code=IRKR measure="one-hybrid fitness for binding NBS DNA" qualifier_operator== value_measured=0.67
mutation_code=TMSR measure="one-hybrid fitness for binding NBS DNA" qualifier_operator=≤ value_measured=0.2
mutation_code=QQYA measure="one-hybrid fitness for binding NBS DNA" qualifier_operator== value_measured=0.303
mutation_code=QMEK measure="one-hybrid fitness for binding NBS DNA" qualifier_operator=≤ value_measured=0.2
mutation_code=RRQF measure="one-hybrid fitness for binding NBS DNA" qualifier_operator== value_measured=0.221
mutation_code=QQCA measure="one-hybrid fitness for binding NBS DNA" qualifier_operator== value_measured=0.291
mutation_code=QNKN measure="one-hybrid fitness for binding NBS DNA" qualifier_operator=≤ value_measured=0.2
mutation_code=ICKR measure="one-hybrid fitness for binding NBS DNA" qualifier_operator== value_measured=0.273
mutation_code=IRNR measure="one-hybrid fitness for binding NBS DNA" qualifier_operator== value_measured=0.422
mutation_code=ISKR measure="one-hybrid fitness for binding NBS DNA" qualifier_operator== value_measured=0.243
mutation_code=VCKT measure="one-hybrid fitness for binding NBS DNA" qualifier_operator=≤ value_measured=0.2
mutation_code=QNTT measure="one-hybrid fitness for binding NBS DNA" qualifier_operator=≤ value_measured=0.2
mutation_code=LNDN measure="one-hybrid fitness for binding NBS DNA" qualifier_operator=≤ value_measured=0.2
mutation_code=VCRT measure="one-hybrid fitness for binding NBS DNA" qualifier_operator=≤ value_measured=0.2
mutation_code=IRYT measure="one-hybrid fitness for binding NBS DNA" qualifier_operator=≤ value_measured=0.2
mutation_code=QQRA measure="one-hybrid fitness for binding NBS DNA" qualifier_operator== value_measured=0.606
mutation_code=QTTY measure="one-hybrid fitness for binding NBS DNA" qualifier_operator== value_measured=0.301
mutation_code=ICRR measure="one-hybrid fitness for binding NBS DNA" qualifier_operator== value_measured=0.291
mutation_code=QNDR measure="one-hybrid fitness for binding NBS DNA" qualifier_operator=≤ value_measured=0.2
mutation_code=QRTT measure="one-hybrid fitness for binding NBS DNA" qualifier_operator== value_measured=0.759
mutation_code=RRDR measure="one-hybrid fitness for binding NBS DNA" qualifier_operator== value_measured=0.666
mutation_code=IRRR measure="one-hybrid fitness for binding NBS DNA" qualifier_operator== value_measured=0.601
mutation_code=ICRT measure="one-hybrid fitness for binding NBS DNA" qualifier_operator=≤ value_measured=0.2
mutation_code=QQFA measure="one-hybrid fitness for binding NBS DNA" qualifier_operator== value_measured=0.201
mutation_code=KKKT measure="one-hybrid fitness for binding NBS DNA" qualifier_operator== value_measured=0.427
mutation_code=QTTT measure="one-hybrid fitness for binding NBS DNA" qualifier_operator== value_measured=0.603
mutation_code=RRGF measure="one-hybrid fitness for binding NBS DNA" qualifier_operator=≤ value_measured=0.2
mutation_code=QATH measure="one-hybrid fitness for binding NBS DNA" qualifier_operator=≤ value_measured=0.2
mutation_code=RRGQ measure="one-hybrid fitness for binding NBS DNA" qualifier_operator== value_measured=0.239
mutation_code=IRYR measure="one-hybrid fitness for binding NBS DNA" qualifier_operator== value_measured=0.226
mutation_code=RRLR measure="one-hybrid fitness for binding NBS DNA" qualifier_operator== value_measured=0.702
mutation_code=QATD measure="one-hybrid fitness for binding NBS DNA" qualifier_operator=≤ value_measured=0.2
mutation_code=QTTG measure="one-hybrid fitness for binding NBS DNA" qualifier_operator=≤ value_measured=0.2
mutation_code=ICNR measure="one-hybrid fitness for binding NBS DNA" qualifier_operator=≤ value_measured=0.2
mutation_code=KKVR measure="one-hybrid fitness for binding NBS DNA" qualifier_operator=≤ value_measured=0.2
mutation_code=QKTT measure="one-hybrid fitness for binding NBS DNA" qualifier_operator== value_measured=0.56
mutation_code=IRDR measure="one-hybrid fitness for binding NBS DNA" qualifier_operator=≤ value_measured=0.2
mutation_code=VRRT measure="one-hybrid fitness for binding NBS DNA" qualifier_operator== value_measured=0.432
mutation_code=QQWA measure="one-hybrid fitness for binding NBS DNA" qualifier_operator== value_measured=0.212
mutation_code=RRGR measure="one-hybrid fitness for binding NBS DNA" qualifier_operator== value_measured=0.744
mutation_code=QPFL measure="one-hybrid fitness for binding NBS DNA" qualifier_operator=≤ value_measured=0.2
mutation_code=KTVR measure="one-hybrid fitness for binding NBS DNA" qualifier_operator=≤ value_measured=0.2
mutation_code=QNYR measure="one-hybrid fitness for binding NBS DNA" qualifier_operator== value_measured=0.203
mutation_code=NKKR measure="one-hybrid fitness for binding NBS DNA" qualifier_operator== value_measured=0.3
mutation_code=HCNT measure="one-hybrid fitness for binding NBS DNA" qualifier_operator=≤ value_measured=0.2
